# Test summary: change in splice reporter luminescence, either direction, cell-based, HEK293, spliceosome inhibition project, primary screen (AID 1101);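 further: HEK293 cells carrying a splicing-competent luciferase reporter gene; test concentration not given here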
# Assay context: HEK293 splicing luciferase reporter, 24 h, higher = more signal, called active from +8 up or from −8 down
# binarize z-score: threshold 0.2 inclusive, high side 1, low side -1

Recorded results for 5 molecules are shown here.
[[record]]
molecule = "C=CCOC(=O)[C@H]1[C@@H]2C(=O)O[C@@H](c3ccccc3)[C@@H](c3ccccc3)N2[C@@H](c2ccc(OCCOC(=O)[C@@H]3C[C@@H]4C(=O)NCC(=O)N4[C@@H]3c3ccc(O)cc3)cc2)[C@]12C(=O)Nc1ccc(I)cc12"
group = -1

[[record]]
molecule = "C=CC[C@@]1(C(=O)NCCN2CCOCC2)N=C(c2ccc(OCCCO)cc2)O[C@@H]1c1ccccc1CN=[N+]=[N-]"
group = -1

[[record]]
molecule = "COc1ccc(C(O)C2C=CC3C(=O)N(c4ccccc4)C(=O)C3N2Nc2ccccc2)c2ccccc12 (stereo not given)"
group = 1

[[record]]
molecule = "O=C1C2C=CC(C(O)CCc3ccccc3)N(Nc3ccccc3)C2C(=O)N1c1ccccc1 (stereo not given)"
group = 1

[[record]]
molecule = "C=CC[C@@]1(C(N)=O)N=C(c2ccc(OCCCO)cc2)O[C@@H]1c1ccccc1N=[N+]=[N-]"
group = -1


In the following, a different molecule is considered.
Q: Identify whether the reported z-score of the following molecule is 0.2 or greater: `CN(C)CCCC[C@@H]1NC(=O)[C@@H]2C[C@H](C(=O)NCCCCCCN)[C@H](c3ccc(O)cc3)N2C1=O`
Ans: -1

* * *

# Test summary: small molecules captured by biotinylated probe aFSTL3 – biochemical, small-molecule microarray, fluorescence 635/667, stem cell growth factor project, primary screen (AID 1064);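 further: measures binding of the biotinylated anti-FSTL3 antibody to printed compounds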
# Assay context: higher = more signal
# binarize composite z-score: threshold 0.05 inclusive, high side true, low side false

Recorded results for 4 molecules are shown here.
[[record]]
molecule = "COc1ccc([Si](C)(C)[C@H]2[C@H](CC(=O)N3Cc4ccccc4C[C@H]3CO)O[C@@]3(C(=O)N(Cc4cccc(I)c4)c4ccccc43)[C@@H]2C)cc1"
group = "false"

[[record]]
molecule = "CCOC(=O)C=Cc1cccc(OC)c1O"
group = "false"

[[record]]
molecule = "O=C(NCC(F)(F)F)[C@@H]1c2ccccc2C(=O)N(Cc2ccccc2)[C@H]1c1ccc(CO)cc1"
group = "true"

[[record]]
molecule = "COc1cc(NN2C(C(O)c3ccccc3)C=CC3C(=O)N(c4ccccc4)C(=O)C32)cc(OC)c1OC (configuration not stated)"
group = "false"


Q: Identify whether the reported composite z-score of the following molecule is 0.05 or greater: `C=CCOC(=O)[C@H]1[C@@H]2C(=O)O[C@@H](c3ccccc3)[C@@H](c3ccccc3)N2[C@@H](c2ccc(OCCOC(=O)[C@H]3C[C@H]4C(=O)N[C@@H](CCCC[N+](C)(C)C)C(=O)N4[C@H]3c3ccc(O)cc3)cc2)[C@]12C(=O)Nc1ccccc12`
Ans: true

Q: Identify whether the reported composite z-score of the following molecule is 0.05 or greater: O=C1OCC=C[C@H]2OC34C=CCN(CCN5CCOCC5)C(=O)[C@H]3N(CCCCCCO)C(=O)[C@@H]4[C@@H]12 (some centres not stated)
Ans: false

* * *

# Test summary: probe aShh binding to arrayed compounds – biochemical, biotinylated probe, 635/667 nm fluorescence, primary screen (AID 1114);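 further: probe is biotin-labelled aShh protein from a stem cell growth factor screen; measures binding of labelled protein to compounds printed on the slide; score merges feature fluorescence at 667 nm with signal-to-noise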
# Assay context: small-molecule microarray, higher = more signal
Measurement name: composite z-score
Give the value as a plain number.

[[record]]
compound = "C=CCCN(CC#C[C@H]1Oc2ccccc2S(=O)(=O)N2CCC[C@@H]12)S(=O)(=O)c1ccc(C)cc1"
observed_result = 0.0048

[[record]]
compound = "CC(C)C[C@@H]1NC(=O)[C@@H]2C[C@H](C(=O)NCCCCN(C)C)[C@H](c3ccc(O)cc3)N2C1=O"
observed_result = -0.0553

[[record]]
compound = "Cc1ccc(S[C@]2(C(=O)NCc3ccccc3)CC(=O)N(Cc3cc(C(F)(F)F)cc(C(F)(F)F)c3)[C@@H]2c2ccc(CO)cc2)cc1"
observed_result = 0.516

[[record]]
compound = "C[C@H]1C2[C@H](Cc3ccccc3)NC(=O)[C@]23C(=O)N[C@H](Cc2ccccc2)C(=O)N[C@H](Cc2ccccc2)C(=O)NC/C=C/CCC/C=C/C3[C@@H]2O[C@]12C (some centres undefined)"
observed_result = -0.123

[[record]]
compound = "C/C=C/[C@H](CCn1cc([C@H](O)c2ccccc2)nn1)[Si](C)(C)c1ccc(OC)cc1"
observed_result = -0.0769


Q: GET /values?readout=composite z-score&item= O=C1OCCC=C[C@H]2OC34C=CCN(c5ccc6ccccc6c5)C(=O)[C@H]3N(CCCCCCO)C(=O)[C@@H]4C12 (some centres undefined)
Ans: -0.0337

* * *

# Study system: Torsin-1A-interacting protein 2 (Homo sapiens) (UniProt Q8NFQ8)
# Sequence (Q8NFQ8 whole entry, looked up): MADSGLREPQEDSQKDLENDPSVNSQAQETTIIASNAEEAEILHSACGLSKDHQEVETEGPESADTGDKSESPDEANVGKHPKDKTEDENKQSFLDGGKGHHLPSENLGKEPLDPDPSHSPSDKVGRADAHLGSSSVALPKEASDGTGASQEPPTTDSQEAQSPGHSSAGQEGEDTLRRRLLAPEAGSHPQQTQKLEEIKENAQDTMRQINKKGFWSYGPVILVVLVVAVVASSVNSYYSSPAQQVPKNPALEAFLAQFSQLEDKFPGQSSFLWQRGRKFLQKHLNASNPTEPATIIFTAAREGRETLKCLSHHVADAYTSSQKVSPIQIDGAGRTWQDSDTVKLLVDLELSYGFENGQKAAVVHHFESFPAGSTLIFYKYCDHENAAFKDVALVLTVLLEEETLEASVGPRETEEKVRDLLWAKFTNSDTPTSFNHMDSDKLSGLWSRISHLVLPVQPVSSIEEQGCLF
# Test summary: small molecules binding lysate-expressed LULL1 – cell lysate, human LULL1 lysate, 635/667 nm fluorescence, primary screen (AID 1092);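 further: probe is lysate of COS7 cells overexpressing human LULL1; score merges per-feature 667 nm fluorescence with signal-to-noise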
# Assay context: small-molecule microarray, hLULL1 lysate binding, 635 nm fluorescence; higher = more signal
Listed molecules paired with reported composite z-score
Give the value as a plain number.

[[record]]
molecule = "C=CCC(OC(C)=O)[C@@H]1[C@@H](N(Cc2cc3ccccc3o2)C(=O)c2ccc(-c3ccccc3)cc2)c2cc(OCCCO)ccc2N1C(=O)Cc1ccc2ccccc2c1 (some centres undefined)"
measurement_name = "composite z-score"
observed_result = 0.898


Q: GET /values?readout=composite z-score&item= C=CCC(OC(C)=O)[C@@H]1[C@@H](N(Cc2cc3ccccc3o2)C(=O)c2ccc(C)cc2)c2cc(OCCCO)ccc2N1C(=O)c1ccc(-c2ccccc2)cc1 (some centres undefined)
Ans: 0.666

Q: GET /values?readout=composite z-score&item= CCN(CC)c1ccc(N2CC=CC34O[C@@H]5C=CCCOC(=O)C5[C@H]3C(=O)N(CCCO)[C@@H]4C2=O)cc1 (some centres undefined)
Ans: -1.02

Q: GET /values?readout=composite z-score&item= `CC(C)CNC(=O)[C@@]1(C)c2ccccc2C(=O)N(C(C)C)[C@H]1c1ccc(CO)cc1`
Ans: 1.16

* * *

# Test summary: probe aCHRDL2 binding to arrayed compounds – biochemical, biotinylated probe, 635/667 nm fluorescence, primary screen (AID 1100)
# Assay context: small-molecule microarray, higher = more signal
# binarize composite z-score: threshold 0.3 inclusive, high side Condition met, low side Condition not met

[[record]]
compound = "O=C1C[C@@](C(=O)O)(c2ccc([N+](=O)[O-])cc2)[C@@H](c2ccc(CO)cc2I)N1C1CCCCC1"
group = "Condition met"

[[record]]
compound = "CCCNC(=O)[C@@]1(C)c2ccccc2C(=O)N(Cc2cc(F)cc(C(F)(F)F)c2)[C@H]1c1ccc(CO)cc1"
group = "Condition met"

[[record]]
compound = "CCN(CC)c1ccc(N2CC=CC34O[C@@H]5/C=C\\CCC(C)OC(=O)C5[C@H]3C(=O)N(CCCCCCO)[C@@H]4C2=O)cc1 (some centres undefined)"
group = "Condition not met"

[[record]]
compound = "COc1ccc([Si](C)(C)[C@@H]2[C@@H](CCn3cc([C@H](O)c4ccccc4)nn3)O[C@]3(C(=O)N(C)c4ccccc43)[C@H]2C)cc1"
group = "Condition not met"


Q: Identify whether the reported composite z-score of the following compound is 0.3 or greater: `COc1ccccc1CN1C(=O)c2ccccc2[C@](Cc2ccccc2I)(C(=O)NC2CC2)[C@@H]1c1ccc(CO)cc1`
Ans: Condition not met

Q: Identify whether the reported composite z-score of the following compound is 0.3 or greater: `C=C(COC)/C(=C/C[C@H](OC(C)=O)c1ccccc1OCCO)c1cnc2ccccc2c1`
Ans: Condition not met

Q: Identify whether the reported composite z-score of the following compound is 0.3 or greater: CN1C(=O)C2C=CC(C(O)C(C)(C)C)N(Nc3ccccc3)C2C1=O (centres undefined)
Ans: Condition not met

Q: Identify whether the reported composite z-score of the following compound is 0.3 or greater: O=C1OCCC=C[C@H]2OC34C=CCN(CCN5CCOCC5)C(=O)[C@H]3N(CCO)C(=O)[C@@H]4C12 (some centres undefined)
Ans: Condition not met

Q: Identify whether the reported composite z-score of the following compound is 0.3 or greater: `O=C(NCc1ccccc1)[C@@H]1c2ccccc2C(=O)N(C2CCCCC2)[C@H]1c1ccc(CO)cc1`
Ans: Condition not met

Q: Identify whether the reported composite z-score of the following compound is 0.3 or greater: `[N-]=[N+]=NCc1ccccc1[C@H]1OC(c2ccc(OCCCO)cc2)=N[C@@]1(Cc1ccccc1)C(=O)O`
Ans: Condition met

Q: Identify whether the reported composite z-score of the following compound is 0.3 or greater: `C=CC[C@@]1(C(=O)NCCN2CCOCC2)N=C(c2ccc(OCCCO)cc2)O[C@@H]1c1ccccc1CN=[N+]=[N-]`
Ans: Condition met

Q: Identify whether the reported composite z-score of the following compound is 0.3 or greater: `COc1ccc([Si](C)(C)[C@H]2[C@H](CCO)O[C@@]3(C(=O)N(Cc4cccc(N5C(=O)c6cccc7cccc5c67)c4)c4ccccc43)[C@@H]2C)cc1`
Ans: Condition met

Q: Identify whether the reported composite z-score of the following compound is 0.3 or greater: CN1C(=O)C2C(C1=O)C1C=C(c3ccc(CO)cc3)C2C(C2CC2)N1Cc1sc2ccccc2c1Cl (centres undefined)
Ans: Condition met

Q: Identify whether the reported composite z-score of the following compound is 0.3 or greater: `C=C(CCCC)C(=O)CC[C@@H](OC(=O)c1ccccc1-c1ccccc1C(=O)O)c1ccc(CO)o1`
Ans: Condition not met

Q: Identify whether the reported composite z-score of the following compound is 0.3 or greater: `COc1ccc([Si](C)(C)[C@H]2[C@H](CC(=O)N3CCC[C@H]3CO)O[C@@]3(C(=O)N(c4ccccc4)c4ccccc43)[C@@H]2C)cc1`
Ans: Condition not met

Q: Identify whether the reported composite z-score of the following compound is 0.3 or greater: `COCCOC(=O)N1C(=O)[C@@]2(c3cc(C#CCC(C(=O)OC)C(=O)OC)ccc31)[C@H](c1ccc(OCCO)cc1)N1[C@H](c3ccccc3)[C@H](c3ccccc3)OC(=O)[C@H]1[C@@H]2C(=O)NC[C@H](O)c1ccccc1`
Ans: Condition not met

Q: Identify whether the reported composite z-score of the following compound is 0.3 or greater: CN1C(=O)C2C=CC(C(O)C3=C[C@H]4C[C@@H](C3)C4(C)C)N(Nc3ccc([N+](=O)[O-])cc3[N+](=O)[O-])C2C1=O (some centres undefined)
Ans: Condition met

Q: Identify whether the reported composite z-score of the following compound is 0.3 or greater: CC(c1ccccc1)C(O)C1C=CC2C(=O)N(c3ccccc3)C(=O)C2N1Nc1ccccc1F (centres undefined)
Ans: Condition met
